The origin of these recorded values is paper PMC3151165.

- target: T1, delta opioid receptor (Mus musculus, UniProt P32300)
- T1 chain: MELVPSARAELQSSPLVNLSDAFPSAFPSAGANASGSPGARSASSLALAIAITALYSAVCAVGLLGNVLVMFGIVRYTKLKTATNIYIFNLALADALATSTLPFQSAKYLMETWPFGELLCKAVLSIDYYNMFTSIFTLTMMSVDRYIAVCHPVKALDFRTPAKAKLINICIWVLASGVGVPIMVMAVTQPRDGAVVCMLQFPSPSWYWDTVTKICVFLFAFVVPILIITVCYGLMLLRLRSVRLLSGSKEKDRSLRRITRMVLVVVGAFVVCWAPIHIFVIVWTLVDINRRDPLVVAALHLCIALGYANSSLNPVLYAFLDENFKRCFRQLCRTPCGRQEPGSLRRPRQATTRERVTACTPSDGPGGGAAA
- protocol-details: radioligand competition
parameter-measured: pKi
Just so you know, pKi here is -log10 of the concentration in molar units; reply with that number alone.

binder: YAGFARRIRPK (trans -CH=CH- bridge between Ala2 and Ala5 side chains, C-terminal amide) [cyclo[Ala2(-CH=CH-)Ala5]Dyn A-(1-11)NH2 trans (2)]
pKi: 5.95

binder: YAGFARRIRPK (D-Ala2, cis -CH=CH- bridge between residues 2 and 5 side chains, C-terminal amide) [cyclo[D-Ala2(-CH=CH-)Ala5]Dyn A-(1-11)NH2 cis (3)]
pKi: 8.03

Okay, now this binder:
Quick one: pKi of YAGFARRIRPK (cis -CH=CH- bridge between Ala2 and Ala5 side chains, C-terminal amide) [cyclo[Ala2(-CH=CH-)Ala5]Dyn A-(1-11)NH2 cis (1)] ?
5.12
